system: Proteus vulgaris HX-19; experiment: Antibacterial activity, agar-dilution MIC, organism No. 21; assay type: cell-based; conditions: Proteus vulgaris, HX19; Organism No. 21, bouillon-agar; read-out: Minimum Inhibitory Concentration
readout name: MIC (µg/mL)
The response must be a number in µg/mL with no trailing unit.

Here's what some known entries look like.
>>> df
                                   molecule  unit_descriptor  observed
0  [C-]#[N+]C12CC3(/C=C/C(=O)OCc4cc([N+](=O)[O-])ccc4OC)OC3C1O2 (stereo not drawn)            µg/mL      3.13
1  [C-]#[N+]C12CC3(/C=C/C(=O)N4CCN(C)CC4)OC3C1O2 (stereo not drawn)            µg/mL        25
2  [C-]#[N+]C12CC3(/C=C/C(=O)Nc4ccccc4C(N)=O)OC3C1O2 (stereo not drawn)            µg/mL      3.13
3  [C-]#[N+]C12CC3(/C=C/C(=O)Nc4ccc(I)cc4)OC3C1O2 (stereo not drawn)            µg/mL      0.78
4  [C-]#[N+]C12CC3(/C=C/C(=O)OCC(=O)c4ccccc4)OC3C1O2 (stereo not drawn)            µg/mL      0.05

## Input Would you mind telling me what MIC value was observed for [C-]#[N+]C12CC3(/C=C/C(=O)Nc4cc(C(=O)OC)ccc4OC)OC3C1O2 (stereo not drawn) ?
## Output 100

## Input Now consider [C-]#[N+]C12CC3(/C=C/C(=O)Nc4ccc(S(N)(=O)=O)cc4)OC3C1O2 (stereo not drawn) .
## Output 1.56

## Input Now consider [C-]#[N+]C12CC3(/C=C/C(=O)Nc4cccc(OC)c4)OC3C1O2 (stereo not drawn) .
## Output 0.3

## Input Now consider [C-]#[N+]C12CC3(/C=C/C(=O)Nc4cccc(C)c4)OC3C1O2 (stereo not drawn) .
## Output 0.05

## Input Now consider [C-]#[N+]C12CC3(/C=C/C(=O)NOC)OC3C1O2 (stereo not drawn) .
## Output 6.25

## Input Now consider [C-]#[N+]C12CC3(/C=C/C(=O)ON4C(=O)CCC4=O)OC3C1O2 (stereo not drawn) .
## Output 25

## Input Now consider [C-]#[N+]C12CC3(/C=C/C(=O)Nc4cccc(N)c4)OC3C1O2 (stereo not drawn) .
## Output 0.39

----------
tested on: Staphylococcus aureus Terajima; experiment: Antibacterial activity, agar-dilution MIC, organism No. 2; assay type: cell-based; conditions: Staphylococcus aureus; Organism No. 2, bouillon-agar; read-out: Minimum Inhibitory Concentration
readout name: MIC (µg/mL)
The response must be a number in µg/mL with no trailing unit.

Here's what some known entries look like.
>>> df
                                   compound  observed
0  [C-]#[N+]C12CC3(/C=C/C(=O)OCc4ccccc4)OC3C1O2 (stereo not drawn) [Compound No. 10, benzyl β-substituted acrylate]      1.56
1  [C-]#[N+]C12CC3(/C=C/C(=O)Nc4ccc(C(=O)c5ccccc5)cc4)OC3C1O2 (stereo not shown) [compound 79]      0.78
2  [C-]#[N+]C12CC3(/C=C/C(=O)NOCc4ccccc4)OC3C1O2 (stereo not shown) [compound 82]       0.2

Switching to the query record.
## Input Find the measured MIC: item [C-]#[N+]C12CC3(/C=C/C(=O)OCC(=O)c4ccc(Cl)cc4)OC3C1O2 (stereo not shown) [compound 5] , target or system Staphylococcus aureus Terajima.
## Output 0.78
